Kindly state melting point for each of the entries shown.

For the molecule `c1ccc(OCc2nnn[nH]2)cc1` , give its measured melting point value.
128 to 131 °C

For the molecule COc1ccc2c3c([nH]c2c1[N+](=O)[O-])C(O)CC3 (stereo unspecified) , give its measured melting point value.
192 °C

For the molecule CCCCOCCOc1ccc(-c2ccc(N3CCC(COC(C)=O)C3)c(C=C(C)C(=O)O)c2)cc1 (stereo unspecified) , give its measured melting point value.
110 to 111 °C

For the molecule `Cc1cc2c(Cl)nnc(Cl)c2n1Cc1ccccc1` , give its measured melting point value.
122 to 124 °C

For the molecule `O=C1CNc2ccccc2CN1` , give its measured melting point value.
167 to 170 °C

For the molecule `CC1(C)CCC(C)(C)c2cc([N+](=O)[O-])ccc21` , give its measured melting point value.
46 to 50 °C

For the molecule `COc1nc(Oc2ccccc2C(=O)O)nc(N(C)C)n1` , give its measured melting point value.
148 to 149 °C

For the molecule `C=CCOC(=O)c1cccc(S(=O)(=O)n2c(=O)[nH]c(=O)c3ccc(Cl)cc32)c1` , give its measured melting point value.
187 to 189 °C

For the molecule O=C(Nc1ccc(OC(F)F)cc1)N1N=C(c2ccc(Cl)cc2)CC1c1ccc(Cl)cc1 (stereo unspecified) , give its measured melting point value.
174 °C

For the molecule CC(CNC(=O)Cc1ccccc1)NCC(O)c1ccccc1 (stereo unspecified) , give its measured melting point value.
96 to 98 °C

For the molecule `CCOCc1nc2c(N)nc3cc(OCCCN4CCCC4=O)ccc3c2n1CCCCNC(=O)OC(C)(C)C` , give its measured melting point value.
134 to 136 °C
